target_entity: T1, PTPN6 tandem SH2 domains (human)
T1 construct: PTPN6, human; also called PTPN6-NC; source: bacterial expression, purified
experiment_description: peptide or protein array; SH2/PTB proteins spotted on aldehyde slides, rhodamine peptide titrated in buffer B (20 mM HEPES, 100 mM KCl, 0.1% Tween-20, 5 mM DTT, pH 7.8), 1 h at room temperature; replicate assays
stated_conditions: both partners purified
pKd: −log10 of the molar value. Non-standard residues stand in square brackets, D forms with d. No end group written: not given here. pY = N[C@@H](Cc1ccc(OP(=O)(O)O)cc1)C(=O)O; Rhodamine = not defined here
endpoint: pKd

>  <binder>
Rhodamine-ETDG[pY]VAPLTCSD (reading uncertain) [ErbB2 pY1127 phosphopeptide, rhodamine-labelled, for protein microarrays]

>  <endpoint>
pKd

>  <recorded_result>
5.79

$$$$
